These data points were gathered from patent US8399439B2.

# Test system: HL-60 cells
# Experimental details: HL-60 cell differentiation (nitro blue tetrazolium reduction)
# Format: cell-based, human
# Experimental context: HL-60 cells, 4 days; FIG. 2
Property: pEC50
Conceptually, pEC50 converts a concentration in mol/L into minus its log10.

State, for HL-60 cells, measured pEC50 of the compound listed here: C=C1/C(=C\C=C2/CCC[C@]3(C)[C@@H]([C@H](C)CCCC(C)(C)O)CC[C@@H]23)C[C@@H](O)C[C@@H]1O [1α,25-dihydroxyvitamin D3, reference compound]
8.70

* * *

# Test system: 24-hydroxylase (24Ohase) gene promoter
# Experimental details: In vitro transcription assay, luciferase reporter in ROS 17/2.8 (bone) cells
# Format: cell-based
# Experimental context: ROS 17/2.8 cells, 24-hydroxylase promoter-luciferase, 16 h; FIG. 3; read-out: EC50, transcriptional activity in bone cells
Property: EC50 (nM)
Use nM as the unit, but write only the number.

Retrieve EC50 measured for C=C1/C(=C\C=C2/CCC[C@]3(C)[C@@H]([C@H](C)CCCC(C)(C)O)CC[C@@H]23)C[C@@H](O)C[C@@H]1O [1α,25-dihydroxyvitamin D3, reference compound] and print it.
0.2

Tell me EC50 reported for C=C1[C@H](O)CC(=C/C=C2\CCC[C@]3(C)[C@@H]([C@@H](C)/C=C/C[C@@H](C)O)CC[C@@H]23)C[C@H]1O [SOR-1]
0.08
